Hello, the source for this data is patent US20030068675, in case you need it.

Molecular target: T1, ZFP SBS#385 (synthetic)
T1 chain: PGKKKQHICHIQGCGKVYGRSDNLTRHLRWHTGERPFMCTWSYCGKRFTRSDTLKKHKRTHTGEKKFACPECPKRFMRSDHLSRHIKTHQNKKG
Assay: EMSA
Conditions: tags: MBP fusion
Assay readout: pKd
The scale used: pKd is minus the common logarithm of the concentration in molar units.

Record request: pKd value, item GGGGCGGAGC (dsDNA) DNA 1: GGGGCGGAGC DNA 2: GCTCCGCCCC
8.92
